Please go through the items and note down their pIC50.
Molecular target: T1, human GLP-1 receptor (human, UniProt P43220 24-463)
T1 construct: whole, on cells; also called hGLP-1
Experiment: SPA displacement of [125I]-GLP-1(7-36)NH2 from BHK membranes with human GLP-1 receptor, high HSA (2.0%)
Numbers only, as −log10 of the molar value.

HXEGTFTSDVSSYLEGQAAKEFIAWLVRGRK (Aib at 8; 26K and 37K acylated: protracting moiety C14 diacid, linker gGlu-2xOEG (numbering of GLP-1(7-37), His = 7), X stands for Aib) [Comparative compound (WO2011/080103) Example 4]    6.45

Now, please, on to the next binder.
Q: For the binder HXEGTFTSDVSSYLEGQAAKEFIAHLVQGRK (Aib at 8; Lys 26 and Lys 37 each acylated at the epsilon-amino group with the side chain given in the name (numbering of GLP-1(7-37), His = 7)) , what pIC50 is on record?
Result: 7.57
